Each record here notes measured melting point.
Counter-ions that a name gives are not always drawn.
outcomeMeasure: melting point

> print(dat)
                                   molecule  reportedmeasurement
1  CN(C)CCNC1=CC(=O)c2sc(C(=O)Nc3ccc(F)cc3)nc2C1=O        208 to 209 °C
2  COc1ccc(NC(=O)c2nc3c(s2)C(=O)C=C(NCCN(C)C)C3=O)cc1 (as salt: methanesulphonate)        207 to 208 °C
3  CN(C)CCNC1=CC(=O)c2sc(C(=O)Nc3ccc4c(c3)OCO4)nc2C1=O        220 to 221 °C
4  CN(C)CCNC1=CC(=O)c2nc(C(=O)N3CCCC3)sc2C1=O        224 to 225 °C
5  CN(C)CCNC1=CC(=O)c2sc(C(=O)N3CCOCC3)nc2C1=O        207 to 208 °C
6  CN(C)CCNC1=CC(=O)c2sc(C(=O)N3CCN(C(=O)C4CCCO4)CC3)nc2C1=O (centres unmarked)        168 to 169 °C
7  CCNC(=O)c1nc2c(s1)C(=O)C=C(N(C)CCN(C)C)C2=O        163 to 164 °C
8  CN(C)CCNC1=CC(=O)c2sc(C(=O)NCC3CCCCC3)nc2C1=O        171 to 172 °C

====

Each record here notes measured melting point.
outcomeMeasure: melting point

> print(dat)
                                   compound  outcomemeasure  reportedmeasurement
1  CN(C)CCNC1=CC(=O)c2sc(C(=O)N3CCCC3)nc2C1=O [Example 22]   melting point        207 to 208 °C
2  COc1ccc2c(c1)CCCN2C(=O)c1nc2c(s1)C(=O)C=C(NCCN(C)C)C2=O [Example 36]   melting point        192 to 193 °C
3  COc1ccc(C(=O)N2CCN(C(=O)c3nc4c(s3)C(=O)C=C(NCCN(C)C)C4=O)CC2)cc1 [Example 37]   melting point        209 to 210 °C
4  CN(C)CCNC1=CC(=O)c2sc(C(=O)N3CCN(C(=O)N4CCOCC4)CC3)nc2C1=O [Example 16]   melting point        211 to 212 °C
